Hello, the source for this data is patent US20080221060A1, in case you need it.

target: adenosine receptors (rat striatal membranes, [3H]-CGS21680) (Rattus norvegicus); assay: Ki from displacement of [3H]-CGS21680 in rat striatal membranes at pH 5.5 and pH 7.4; format: binding; design: from tissue; host or cells: rat striatum (membranes); details: pH 5.5; 2 nM [3H]-CGS21680, 90 minutes at 22° C.; read-out: (Ki) nM (pH 5.5)
experimental_readout: log10 Ki (log10 of the value in nM)
log10 Ki, nM

Solved cases (3 shown):
molecule	tested_target	reported
COCCN(C)c1ncnc2c1ncn2[C@@H]1O[C@H](CO)[C@@H](O)[C@H]1O [Compound 47]	adenosine receptors (rat striatal membranes, [3H]-CGS21680) (Rattus norvegicus)	1.11
Nc1nc(OCC(F)F)nc2c1ncn2[C@@H]1O[C@H](CO)[C@@H](O)[C@H]1O [Compound 2]	adenosine receptors (rat striatal membranes, [3H]-CGS21680) (Rattus norvegicus)	1.23
Nc1nc(Oc2ccc(F)c(F)c2)nc2c1ncn2[C@@H]1O[C@H](CO)[C@@H](O)[C@H]1O [Compound 11]	adenosine receptors (rat striatal membranes, [3H]-CGS21680) (Rattus norvegicus)	1.80

[in] Which log10 Ki reading was recorded for the molecule Cc1ccc(Oc2nc(N)c3ncn([C@@H]4O[C@H](CO)[C@@H](O)[C@H]4O)c3n2)cc1 [Compound 16] ?
[out] 0.53

[in] Data request, read-out log10 Ki, for Nc1nc(OCCO)nc2c1ncn2[C@@H]1O[C@H](CO)[C@@H](O)[C@H]1O [Compound 34, 2-(β-hydroxyethoxy)-adenosine]
[out] 0.60

* * *

biological target: adenosine receptors (rat striatal membranes, [3H]-CGS21680) (Rattus norvegicus, UniProt P30543); assay: Ki from displacement of [3H]-CGS21680 in rat striatal membranes at pH 5.5 and pH 7.4; assay type: binding; design: from tissue; host or cells: rat striatum (membranes); conditions: pH 7.4; 2 nM [3H]-CGS21680, 90 minutes at 22° C.; read-out: (Ki) nM (pH 7.4)
Sequence (P30543 whole entry): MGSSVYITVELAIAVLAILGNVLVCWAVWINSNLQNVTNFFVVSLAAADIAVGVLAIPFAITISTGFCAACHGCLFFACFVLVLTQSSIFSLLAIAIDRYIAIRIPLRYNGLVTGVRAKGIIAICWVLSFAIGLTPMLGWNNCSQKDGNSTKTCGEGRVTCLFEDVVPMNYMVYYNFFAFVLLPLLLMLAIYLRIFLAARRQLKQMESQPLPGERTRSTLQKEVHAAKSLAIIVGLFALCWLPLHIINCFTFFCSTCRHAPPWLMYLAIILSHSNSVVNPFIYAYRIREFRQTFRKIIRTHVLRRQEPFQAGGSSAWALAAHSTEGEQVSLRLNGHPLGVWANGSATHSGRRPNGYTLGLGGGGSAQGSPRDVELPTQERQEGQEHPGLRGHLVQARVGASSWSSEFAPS
Listed next: entries and their corresponding Ki.

molecule	Ki
COc1nc(NCc2ccccc2)c2ncn([C@@H]3O[C@H](CO)[C@@H](O)[C@H]3O)c2n1	6100 nM

[in] Which Ki reading was recorded for the molecule CN(Cc1cccc(Br)c1)c1ncnc2c1ncn2[C@@H]1O[C@H](CO)[C@@H](O)[C@H]1O ?
[out] 7500 nM

[in] Please look up its Ki: Nc1nc(OC2CC(F)(F)C2(F)F)nc2c1ncn2[C@@H]1O[C@H](CO)[C@@H](O)[C@H]1O (some centres unmarked)
[out] 220 nM

* * *

target: adenosine receptors (rat striatal membranes, [3H]-CGS21680) (Rattus norvegicus, UniProt P30543); assay: Ki from displacement of [3H]-CGS21680 in rat striatal membranes at pH 5.5 and pH 7.4; format: binding; set-up: from tissue; host or cells: rat striatum (membranes); conditions: pH 7.4; 2 nM [3H]-CGS21680, 90 minutes at 22° C.; read-out: (Ki) nM (pH 7.4)
experimental_readout: Ki (nM)
Just the number in nM, nothing appended.

compound	uom	reported
CCCC(=O)NC[C@H]1O[C@@H](n2cnc3c(N)ncnc32)[C@H](O)[C@@H]1O	nM	16900

[in] Which Ki value belongs to CC(C)CCN(C)c1nc(N)c2ncn([C@@H]3O[C@H](CO)[C@@H](O)[C@H]3O)c2n1 ?
[out] 4000

[in] Which measured Ki value corresponds to Cc1nc2c(N)nc(NC3CCCC3)nc2n1[C@@H]1O[C@H](CO)[C@@H](O)[C@H]1O ?
[out] 2400

[in] Name the recorded Ki for Nc1nc(Oc2cccc(Br)c2)nc2c1ncn2[C@@H]1O[C@H](CO)[C@@H](O)[C@H]1O .
[out] 590

[in] Return reported Ki; argument: Nc1nc(OCC2CCCC2)nc2c1ncn2[C@@H]1O[C@H](CO)[C@@H](O)[C@H]1O
[out] 200
